# study-system: replication of MDV-1 by Qβ replicase (Escherichia virus Qbeta)
# test-details: Inhibition of MDV-1 replication by dyes in linear-phase Qβ replicase reactions
# Assay type: biochemical, bacteriophage Qβ
# measurement-setup: linear-phase reactions, template RNA in excess over enzyme
assay-endpoint: ability to inhibit the replication of MDV-1

compound: Nc1ccc2cc3ccc(N)cc3nc2c1 [proflavine]
experimental-value: inhibited
--
compound: C[n+]1c(-c2ccccc2)c2cc(N)ccc2c2ccc(N)cc21 [dimidium bromide]
experimental-value: inhibited
--
compound: CC[n+]1c(-c2ccccc2)c2cc(N)ccc2c2ccc(N)cc21 [ethidium bromide]
experimental-value: inhibited
